assay_method_text: Metabolic stability in pooled human liver microsomes assessed as intrinsic clearance at 1 uM preincubated with compound followed by NADPH addition and measured upto 45 mins by LC-MS/MS analysis
Type: ADME, Microsome
setup_conditions: read-out: CLH
The label Y is reserved for microsomal CLint at 1 µM strictly under 40 µL/min/mg; N covers values equal to or above it.

The examples below pair each entry with its known result.
Please determine if `[2H]C([2H])([2H])N1C[C@H](C(=O)N(C([2H])([2H])C([2H])([2H])[2H])C([2H])([2H])C([2H])([2H])[2H])C=C2c3cccc4[nH]c(Br)c(c34)C[C@H]21` is below 40 µL/min/mg in terms of microsomal CLint at 1 µM.
Y

Please determine if `[2H]c1[nH]c2c([2H])c([2H])c([2H])c3c2c1C[C@@H]1C3=C[C@@H](C(=O)N(CC)CC)CN1C` is below 40 µL/min/mg in terms of microsomal CLint at 1 µM.
Y

Please determine if `[2H]C([2H])([2H])N1C[C@H](C(=O)N(CC)CC)C=C2c3cccc4[nH]c(Br)c(c34)C[C@H]21` is below 40 µL/min/mg in terms of microsomal CLint at 1 µM.
N

---
Please determine if `[2H]C([2H])([2H])C([2H])([2H])N(C(=O)[C@@H]1C=C2c3cccc4[nH]c(Br)c(c34)C[C@H]2N(C)C1)C([2H])([2H])C([2H])([2H])[2H]` is below 40 µL/min/mg in terms of microsomal CLint at 1 µM.
N

Please determine if `CCN(CC)C(=O)[C@@H]1C=C2c3cccc4[nH]c(Br)c(c34)C[C@H]2N(C)C1` is below 40 µL/min/mg in terms of microsomal CLint at 1 µM.
N

Please determine if `[2H]c1[nH]c2cccc3c2c1C[C@@H]1C3=C[C@@H](C(=O)N(CC)CC)CN1C` is below 40 µL/min/mg in terms of microsomal CLint at 1 µM.
Y

Please determine if `[2H]c1c([2H])c2c3c(c(Br)[nH]c3c1[2H])C[C@@H]1C2=C[C@@H](C(=O)N(CC)CC)CN1C` is below 40 µL/min/mg in terms of microsomal CLint at 1 µM.
N

Please determine if `[2H]C([2H])([2H])C([2H])([2H])N(C(=O)[C@@H]1C=C2c3cccc4[nH]cc(c34)C[C@H]2N(C)C1)C([2H])([2H])C([2H])([2H])[2H]` is below 40 µL/min/mg in terms of microsomal CLint at 1 µM.
Y

Origin of measurements: ChEMBL document CHEMBL5357025
